# credit: the NIST ThermoML archive (doi:10.1016/j.jct.2004.07.024)

# refractive index per entry
Assay: refractive index (Na D-line) (dimensionless)
Settings: 293.15 K; 101.33 kPa; Liquid; Standard Abbe refractometry

molecule | refractive index
c1ccccc1 [benzene] | 1.5009
Cc1ccccc1 [toluene] | 1.4965
C[S+](C)[O-] [dimethyl sulfoxide] | 1.4785
CCc1ccccc1 [ethylbenzene] | 1.4962
C=Cc1ccccc1 [styrene] | 1.546

###

Conditions: 298.15 K; 101.33 kPa; Liquid
Label 1.0 when mass density is at or above 900 kg/m3; anything below gets 0.0.

compound | class
C[S+](C)[O-] [dimethyl sulfoxide] | 1.0
Cc1ccccc1 | 0.0
CCc1ccccc1 | 0.0
